This section presents compounds with their documented melting point values.

COMPOUND	melting point
CCOC(=O)c1sc(SC)c2c1CCc1sc(C)nc1-2	143 to 144 °C

// query Which melting point value belongs to "CSc1sc(C(=O)O)c2c1-c1nc(C)sc1CC2" ?
// result 273 to 274 °C

// query What would you report for CCCSc1sc(C(=O)OCC)c2c1C(=O)C(NC(=O)CC)CC2 (centres unmarked) ?
// result 191 to 192 °C

// query What would you report for "CCOC(=O)c1sc(SC)c2c1CCc1nc(C)oc1-2" ?
// result 131 to 132 °C

// query What would you report for "CCCSc1sc(C(N)=O)c2c1-c1nc(-c3ccccc3)sc1CC2" ?
// result 203 to 204 °C

====

This section presents compounds with their documented melting point values.

# annotated cases, reported melting point shown
COMPOUND	EXPERIMENTAL_RESULT
CCOC(=O)c1sc(SC)c2c1CCc1sc(-c3ccccc3)nc1-2	153 to 154 °C
CCNC(=O)c1sc(SC)c2c1CCc1nc(C)oc1-2	175 to 176 °C
CCOC(=O)c1cc2c(s1)-c1c(SC)sc(C(=O)OCC)c1CC2	107 to 108 °C
CCCSc1sc(C(=O)O)c2c1-c1nc(-c3ccccc3)sc1CC2	236 to 237 °C (dec.)

// query Which melting point value belongs to "CSc1oc(C(=O)O)c2c1-c1nc(-c3ccccc3)sc1CC2" ?
// result 206 to 207 °C (dec.)

// query What would you report for CCOC(=O)c1sc(SC)c2c1CCC(NC(C)=O)C2=O (stereo not shown) ?
// result 215 to 216 °C

// query What would you report for "CCOC(=O)c1oc(SC)c2c1CCc1sc(-c3ccccc3)nc1-2" ?
// result 170 to 171 °C

// query What would you report for "CSc1sc(C(=O)O)c2c1-c1sc(-c3ccccc3)cc1CC2" ?
// result 215 to 217 °C

// query What would you report for "CSc1sc(C(N)=O)c2c1-c1nc(C)sc1CC2" ?
// result 269 to 270 °C

// query What would you report for "CSc1sc(C(N)=O)c2c1-c1[nH]c(-c3ccccc3)nc1CC2" ?
// result 206 to 207 °C

====

RECORDED_ENDPOINT: melting point

MOLECULE	melting point
CCNC(=O)c1sc(SC)c2c1CCc1sc(-c3ccccc3)nc1-2	211 to 212 °C

// query Which melting point value belongs to "CCOC(=O)c1sc(SC)c2c1CCc1nc(-c3ccccc3)[nH]c1-2" ?
// result 218 to 219 °C

// query What would you report for "CON(C)C(=O)c1sc(SC)c2c1CCc1sc(-c3ccccc3)nc1-2" ?
// result 157 to 158 °C

// query What would you report for "CCOP(=O)(Cc1ccc(NC(=O)c2cc3c(s2)-c2c(SC)sc(C(=O)Nc4ccc(CP(=O)(OCC)OCC)cc4)c2CC3)cc1)OCC" ?
// result 262 to 263 °C

// query What would you report for "Cc1nc2c(o1)-c1c(SC(C)C)sc(C(N)=O)c1CC2" ?
// result 230 to 231 °C

// query What would you report for "CCOC(=O)c1sc(SC(C)C)c2c1CCc1nc(C)oc1-2" ?
// result 62 to 63 °C

// query What would you report for "CSc1sc(C(=O)Nc2cccnc2)c2c1-c1nc(-c3ccccc3)sc1CC2" ?
// result 230 to 231 °C

// query What would you report for CCOC(=O)c1sc(SC(C)C)c2c1CCC(NC(C)=O)C2=O (centres unmarked) ?
// result 170 to 171 °C

====

RECORDED_ENDPOINT: melting point

Cc1nc2c(o1)-c1c(SC(C)C)sc(C(=O)O)c1CC2 277 to 278 °C
CSc1sc(C(=O)NCc2ccncc2)c2c1-c1nc(-c3ccccc3)sc1CC2 189 to 190 °C
CCCSc1sc(C(=O)OCC)c2c1-c1nc(-c3ccccc3)sc1CC2 125 to 126 °C
CSc1sc(C(=O)NCc2ccc3c(c2)OCO3)c2c1-c1nc(-c3ccccc3)sc1CC2 236 to 237 °C

Next up:
// query Which melting point value belongs to "CCOC(=O)CSC1=C(C=O)CCc2c(C(=O)OCC)sc(SC)c21" ?
// result 102 to 103 °C

====

This section presents compounds with their documented melting point values.

CCOC(=O)c1sc(SC)c2c1CCC(C=O)=C2Cl 79 to 80 °C
CSc1sc(C(N)=O)c2c1-c1sc(-c3ccccc3)cc1CC2 192 to 193 °C

Next up:
// query Which melting point value belongs to "CSc1sc(C(=O)O)c2c1-c1nc(-c3ccccc3)sc1CC2" ?
// result 255 to 256 °C (dec.)
